Where do the numbers come from? From paper PMC4336329.

target-of-assay: human ether-à-go-go-related gene (hERG) potassium channel (human)
assay-notes: primary screen, population patch clamp on CHO cells stably expressing hERG; higher = less effect of the substance
The campaign covered roughly 310,000 compounds. About 14,000 (4.5%) showed an effect of 50% or more. The effect is printed as a negative number. The entries come from a sample that favours strong results as a whole.
Classify as follows. Reported hERG current change (%, negative = inhibition) at 10uM greater than or equal to -50%: Condition met. Reported hERG current change (%, negative = inhibition) at 10uM below: Condition not met.

INSERT INTO results (compound, target_of_assay, label_class) VALUES
  ('CCCc1cc(C(=O)Nc2ccc(C(=O)OC)cc2)cs1', 'human ether-à-go-go-related gene (hERG) potassium channel (human)', 'Condition met'),
  ('O=C(NCCc1ccc(Cl)cc1)C1CCN(S(=O)(=O)N2CCCC2)CC1', 'human ether-à-go-go-related gene (hERG) potassium channel (human)', 'Condition not met');

## Input For this compound, is measured hERG current change (%, negative = inhibition) at 10uM -50% or higher? `O=C(NCc1ccccc1Cl)C1CCN(S(=O)(=O)c2cccs2)CC1`
## Output Condition not met

## Input For this compound, is measured hERG current change (%, negative = inhibition) at 10uM -50% or higher? `O=[N+]([O-])CC(=Nc1ccc(F)cc1)N/N=C\c1oc(O)c2ccccc12`
## Output Condition met

## Input For this compound, is measured hERG current change (%, negative = inhibition) at 10uM -50% or higher? O=C(NCCc1ccc(Cl)cc1)C1CCCN(S(=O)(=O)N2CCCCCC2)C1 (stereo not shown)
## Output Condition met

## Input For this compound, is measured hERG current change (%, negative = inhibition) at 10uM -50% or higher? `O=C(NCCc1ccc(Cl)cc1)C1CCN(S(=O)(=O)c2cccs2)CC1`
## Output Condition not met

## Input For this compound, is measured hERG current change (%, negative = inhibition) at 10uM -50% or higher? `O=C(C1CCN(c2nnc(-n3cccc3)s2)CC1)N1CCc2ccccc2C1`
## Output Condition not met

## Input For this compound, is measured hERG current change (%, negative = inhibition) at 10uM -50% or higher? `O=C(NCCN1CCc2ccccc2C1)C1CCN(S(=O)(=O)N2CCCCC2)CC1`
## Output Condition not met

## Input For this compound, is measured hERG current change (%, negative = inhibition) at 10uM -50% or higher? `O=C(NCc1ccc(Cl)cc1)C1CCN(S(=O)(=O)c2cccs2)CC1`
## Output Condition met

## Input For this compound, is measured hERG current change (%, negative = inhibition) at 10uM -50% or higher? `CN(C)c1cc[n+](CC(O)C[n+]2ccc(N(C)C)cc2)cc1.[O-][Cl+3]([O-])([O-])[O-]`
## Output Condition met

====

Give hERG current change (%, negative = inhibition) at 10uM for every item shown.
target-of-assay: human ether-à-go-go-related gene (hERG) potassium channel (human)
assay-notes: primary screen, population patch clamp on CHO cells stably expressing hERG; higher = less effect of the substance
The whole screen tested about 310,000 compounds, of which about 14,000 (4.5%) showed an effect of 50% or more. The effect is printed as a negative number. The full list was thinned out, with strong results kept by preference.
Answers are plain numbers, in %.

Solved cases below.
INSERT INTO results (chem_smiles, measured_value) VALUES
  ('COc1ccc(S(=O)(=O)Nc2cccc(-n3cnnn3)c2)cc1', 1.11),
  ('COc1ccc(S(=O)(=O)N2CCC(C(=O)NCCCc3ccccc3)CC2)cc1', -35.9),
  ('CC(=O)c1ccc(OCCNS(=O)(=O)c2ccc(-n3cnnn3)cc2)cc1', -55.3),
  ('CC(=O)c1ccc(S(=O)(=O)Nc2ccc(-n3cnnn3)cc2)cc1', -6.16);

Attention now turns to another entry.
Per the record, `Cc1ccc(S(=O)(=O)N2CCC(C(=O)NCCc3ccccc3)CC2)cc1` has hERG current change (%, negative = inhibition) at 10uM of -0.42

====

target-of-assay: human ether-à-go-go-related gene (hERG) potassium channel (human, UniProt Q12809);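 also: peak tail current of the secondary pulse compared with the same well before compound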
Sequence (Q12809 whole entry, looked up): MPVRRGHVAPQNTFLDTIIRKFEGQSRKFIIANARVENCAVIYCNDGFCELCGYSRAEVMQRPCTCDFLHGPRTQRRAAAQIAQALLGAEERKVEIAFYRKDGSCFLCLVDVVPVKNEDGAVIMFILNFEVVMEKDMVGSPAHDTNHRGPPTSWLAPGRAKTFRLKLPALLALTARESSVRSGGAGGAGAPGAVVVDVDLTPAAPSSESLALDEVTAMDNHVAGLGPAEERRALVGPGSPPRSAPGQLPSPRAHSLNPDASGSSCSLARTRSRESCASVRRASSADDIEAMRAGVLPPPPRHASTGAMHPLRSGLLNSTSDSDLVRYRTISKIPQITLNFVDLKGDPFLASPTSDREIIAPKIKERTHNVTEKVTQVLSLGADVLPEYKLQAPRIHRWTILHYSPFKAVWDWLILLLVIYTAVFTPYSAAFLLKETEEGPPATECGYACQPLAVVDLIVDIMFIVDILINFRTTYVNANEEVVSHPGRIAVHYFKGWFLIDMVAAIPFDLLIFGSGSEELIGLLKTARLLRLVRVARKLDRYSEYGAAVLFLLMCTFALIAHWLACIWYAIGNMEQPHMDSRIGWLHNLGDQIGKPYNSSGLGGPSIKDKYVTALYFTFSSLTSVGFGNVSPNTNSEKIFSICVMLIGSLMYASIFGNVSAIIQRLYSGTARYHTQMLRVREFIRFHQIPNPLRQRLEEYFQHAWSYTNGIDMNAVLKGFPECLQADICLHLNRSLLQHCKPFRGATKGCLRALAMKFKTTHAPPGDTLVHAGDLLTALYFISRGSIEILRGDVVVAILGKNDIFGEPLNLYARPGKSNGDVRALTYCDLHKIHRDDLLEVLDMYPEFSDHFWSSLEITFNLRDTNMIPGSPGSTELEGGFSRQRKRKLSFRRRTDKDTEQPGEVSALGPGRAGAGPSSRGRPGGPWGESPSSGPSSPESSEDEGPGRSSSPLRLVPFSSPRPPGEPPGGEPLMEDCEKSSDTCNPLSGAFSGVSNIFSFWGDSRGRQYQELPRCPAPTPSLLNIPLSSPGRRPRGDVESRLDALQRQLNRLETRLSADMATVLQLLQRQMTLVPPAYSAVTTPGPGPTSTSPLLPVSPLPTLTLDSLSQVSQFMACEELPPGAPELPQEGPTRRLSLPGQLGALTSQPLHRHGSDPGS
assay-notes: primary screen, population patch clamp on CHO cells stably expressing hERG; higher = less effect of the substance
The campaign covered roughly 310,000 compounds. About 14,000 (4.5%) showed an effect of 50% or more. Effects have a minus sign here. This excerpt belongs to a sample that is enriched for strong results.
measured-attribute: hERG current change (%, negative = inhibition) at 10uM (%)
Answers are plain numbers, in %.

Solved cases below.
INSERT INTO results (compound, unit_annotation, measured_value) VALUES
  ('O=C(NC1CCCCC1)c1cc(-c2cccc(Cl)c2)on1', '%', 11.7),
  ('CCN(CC)S(=O)(=O)c1ccc2c(c1)nc(SCc1nc3ccsc3c(=O)[nH]1)n2CC', '%', -30.8),
  ('CC(C)c1ncc(S(=O)(=O)c2ccc(C(F)(F)F)cn2)c(N)n1', '%', 11.6),
  ('COC(=O)C1=C(C)Nc2ncnn2C1c1ccco1 (stereo not shown)', '%', 6.44),
  ('CC(=O)OC(C)C(=O)NS(=O)(=O)c1ccc(C)cc1 (stereo not shown)', '%', 12.3);

Return reported hERG current change (%, negative = inhibition) at 10uM values for all items listed beneath this line.
1. O=C(Nc1ccc(Cl)cc1)Nc1nc(-c2ccccc2)cs1
2. COc1ccccc1N(CC(=O)NC(C)(C)C)C(=O)CCC(=O)Nc1nccs1
3. O=C(NP(=O)(N1CCOCC1)N1CCOCC1)C1=C(N2CCOCC2)/C(=C\c2ccccc2)CC1
4. O=C(Nc1ccccc1N1CCOCC1)C1CCCCN1S(=O)(=O)c1ccccc1 (stereo not shown)
5. Cc1ccc(OCC(=O)NNC(=O)CSc2ncnc3sc(C)c(C)c23)cc1

## Output
[11.3, -36.5, 18.1, -20.8, 39.6]

====

Give hERG current change (%, negative = inhibition) at 10uM for every item shown.
target-of-assay: human ether-à-go-go-related gene (hERG) potassium channel (human);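 also: peak tail current of the secondary pulse compared with the same well before compound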
assay-notes: primary screen, population patch clamp on CHO cells stably expressing hERG; higher = less effect of the substance
Hit rate of the full screen: of about 310,000 compounds, about 14,000 (4.5%) showed an effect of 50% or more. The effect is printed as a negative number. The sample as a whole holds a higher share of strong results than the screen did.
One number for each entry, in %.

INSERT INTO results (chem_smiles, measured_value) VALUES
  ('CC(=O)N1CCN(C(=O)c2cc(=O)c3ccccc3o2)CC1', 26.2),
  ('COc1ccc(N2CCN(C(=O)c3cc(=O)c4cc(Cl)ccc4o3)CC2)cc1', -76.3),
  ('COc1ccc(N2CCN(C(=O)c3cc(=O)c4cc(C)ccc4o3)CC2)cc1', -38.1),
  ('O=C(NCc1ccco1)c1cccc(S(=O)(=O)N2CCCCC2)c1', -24.7);

Per the record, `C[C@@H]1CC[C@H]2[C@@H](C)C(=O)O[C@@H]3O[C@@]4(C)CC[C@@H]1[C@]32OO4` has hERG current change (%, negative = inhibition) at 10uM of 0.204

====

target-of-assay: human ether-à-go-go-related gene (hERG) potassium channel (human, UniProt Q12809);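 also: peak tail current of the secondary pulse compared with the same well before compound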
assay-notes: primary screen, population patch clamp on CHO cells stably expressing hERG; higher = less effect of the substance
The whole screen tested about 310,000 compounds, of which about 14,000 (4.5%) showed an effect of 50% or more. The effect is printed as a negative number. The sample as a whole holds a higher share of strong results than the screen did.
Classify as follows. Reported hERG current change (%, negative = inhibition) at 10uM greater than or equal to -50%: true. Reported hERG current change (%, negative = inhibition) at 10uM below: false.

INSERT INTO results (compound, label_class) VALUES
  ('COc1ccc(CC(C)NCCC(c2ccccc2)c2ccccc2)cc1 (stereo not drawn)', 'false'),
  ('COc1ccc(C(CC(=O)O)c2ccc3c(c2)OCO3)cc1 (stereo not drawn)', 'true'),
  ('COc1ccc(CNc2ccc(-c3ccccc3OC)nn2)cc1', 'true'),
  ('COCCCNC(=O)CCC(=O)Nc1ccc2nc(N3CCOCC3)cc(C)c2c1', 'true'),
  ('COc1ccc(CC(C)CC(=O)NCCc2ccc(OC)c(OC)c2)cc1 (stereo not drawn)', 'true');

Continue with the next compound.
## Input For this compound, is measured hERG current change (%, negative = inhibition) at 10uM -50% or higher? COc1ccc(CCC(C)NCC(C)c2ccccc2)cc1 (stereo not drawn)
## Output true

====

Give hERG current change (%, negative = inhibition) at 10uM for every item shown.
target-of-assay: human ether-à-go-go-related gene (hERG) potassium channel (human);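 also: peak tail current of the secondary pulse compared with the same well before compound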
assay-notes: primary screen, population patch clamp on CHO cells stably expressing hERG; higher = less effect of the substance
About 14,000 (4.5%) of roughly 310,000 compounds showed an effect of 50% or more. The effect is printed as a negative number. Many of the other results were omitted from the sample, so strong results are more common in it than they were.
Give bare numbers, in %.

INSERT INTO assay_data (chem_smiles, measured_value) VALUES
  ('N#C/C(=C/c1cccc(C(F)(F)F)c1)c1nc(CCN2C(=O)c3ccccc3C2=O)cs1', -0.904),
  ('O=C(Cc1ccc([N+](=O)[O-])cc1)N1CCCc2ccccc21', -41.1),
  ('N#C/C(=C/c1ccc(F)cc1)S(=O)(=O)c1ccccc1', 21.3),
  ('CN(C)S(=O)(=O)c1cccc(COC(=O)Cc2c(F)cccc2Cl)c1', 9.75);

Per the record, `O=C(CN1C(=O)c2ccc([N+](=O)[O-])cc2C1=O)NC1CCCCCC1` has hERG current change (%, negative = inhibition) at 10uM of 1.09
